target or system: P2X7 receptor (Homo sapiens)
Construct: host or cells: THP-1 cells differentiated with LPS and IFN-γ
Sequence (Q99572 whole entry): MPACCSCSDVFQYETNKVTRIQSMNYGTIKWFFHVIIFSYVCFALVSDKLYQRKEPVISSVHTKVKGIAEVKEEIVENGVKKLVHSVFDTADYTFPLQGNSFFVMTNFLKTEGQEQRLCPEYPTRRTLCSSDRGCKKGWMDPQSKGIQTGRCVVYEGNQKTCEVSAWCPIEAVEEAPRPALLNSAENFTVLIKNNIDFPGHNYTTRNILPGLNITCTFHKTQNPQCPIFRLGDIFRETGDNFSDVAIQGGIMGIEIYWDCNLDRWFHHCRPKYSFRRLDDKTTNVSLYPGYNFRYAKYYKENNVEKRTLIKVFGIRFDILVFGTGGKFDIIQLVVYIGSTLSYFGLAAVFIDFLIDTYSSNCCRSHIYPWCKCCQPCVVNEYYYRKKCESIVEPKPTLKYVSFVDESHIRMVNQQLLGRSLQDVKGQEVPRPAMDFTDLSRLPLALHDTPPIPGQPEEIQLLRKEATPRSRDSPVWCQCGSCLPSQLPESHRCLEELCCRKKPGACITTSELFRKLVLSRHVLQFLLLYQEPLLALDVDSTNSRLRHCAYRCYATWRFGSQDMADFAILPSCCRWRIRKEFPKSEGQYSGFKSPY
test details: IL-1β release assay (BzATP-stimulated, LPS/IFN-γ differentiated THP-1 cells, ELISA)
Assay type: cell-based
measurement parameters: at 0.1 μM (asterisk symbols)
quantity measured: inhibition at 0.1 µM

Example cases with answers are listed next.
- molecule: "CC12CC3CC(C)(C1)CC(CC(=O)Nc1cccc4c(=O)n(Cc5ccc(F)c(F)c5)ccc14)(C3)C2"
  target or system: "P2X7 receptor (Homo sapiens)"
  inhibition at 0.1 µM: "50 to 75%"
- molecule: "CC12CC3CC(C)(C1)CC(CC(=O)Nc1cccc4c(=O)n(Cc5ccncc5)ccc14)(C3)C2"
  target or system: "P2X7 receptor (Homo sapiens)"
  inhibition at 0.1 µM: "≥ 75%"
- molecule: "CC(c1ccccn1)n1ccc2c(NC(=O)CC34CC5CC(CC(C5)C3)C4)cccc2c1=O (stereo not shown)"
  target or system: "P2X7 receptor (Homo sapiens)"
  inhibition at 0.1 µM: "≥ 75%"

Please look at the following molecule next.
inhibition at 0.1 µM reported for this molecule O=C(CC12CC3CC(CC(C3)C1)C2)Nc1cccc2c(=O)n(C(CO)CO)ccc12 : ≥ 75%
